Consider the following compounds; for each one, report its % Inhibition of Control Specific Binding, Voltage-Sensitive Na+ Channel (site 2).
Tested on: Voltage-Sensitive Na+ Channel (site 2)
Experiment: Radioligand binding, [3H]BTX, Cerep
Conditions: 100 µM, rat cerebral cortex synaptoneurosomal preparations
Reply numerically in %, unit not repeated.

Given the compound Cc1ccsc1C1CC(=O)N(CCCN2CCN(c3ccc(Cl)c(Cl)c3)CC2)C1=O (racemic) and test system Voltage-Sensitive Na+ Channel (site 2), the measured % Inhibition of Control Specific Binding, Voltage-Sensitive Na+ Channel (site 2) is 78.8

Bench note, Voltage-Sensitive Na+ Channel (site 2): entry Cc1ccsc1C1CC(=O)N(CCCN2CCOCC2)C1=O (racemic) , its % Inhibition of Control Specific Binding, Voltage-Sensitive Na+ Channel (site 2) = 42.1

Response field % Inhibition of Control Specific Binding, Voltage-Sensitive Na+ Channel (site 2) (Voltage-Sensitive Na+ Channel (site 2)) for item Cc1ccsc1C1CC(=O)N(CCCN2CCN(c3cccc(C(F)(F)F)c3)CC2)C1=O (racemic) : 96.7

Lab note: compound Cc1ccsc1C1CC(=O)N(CCN2CCOCC2)C1=O (racemic) tested on Voltage-Sensitive Na+ Channel (site 2); recorded % Inhibition of Control Specific Binding, Voltage-Sensitive Na+ Channel (site 2) was 15.6

====

Tested on: acetic acid-induced writhing behavior
Test: Acetic acid-induced writhing test
Format: in vivo
Settings: mice, ip, 30 mg/kg
Record form. Attribute: Reduction of number of writhes (inhibition of writhing behavior). Fill in for each entry.
Number in %, nothing else.

The compound listed as Cc1ccsc1C1CC(=O)N(CCN2CCOCC2)C1=O (racemic) has a reported Reduction of number of writhes (inhibition of writhing behavior) of 34

Please fill in: Reduction of number of writhes (inhibition of writhing behavior) reported for Cc1ccsc1C1CC(=O)N(CCCN2CCN(c3cccc(C(F)(F)F)c3)CC2)C1=O (racemic) = 27

Measured Reduction of number of writhes (inhibition of writhing behavior), Cc1ccsc1C1CC(=O)N(CCCN2CCOCC2)C1=O (racemic) : 29.8

Cc1ccsc1C1CC(=O)N(CCCN2CCN(c3ccc(Cl)c(Cl)c3)CC2)C1=O (racemic) has a reported Reduction of number of writhes (inhibition of writhing behavior) of 61.44

====

Structures can show the parent of a compound that is named as a salt.
metric: melting point

Record Cc1ccsc1C1CC(=O)N(CCCN2CCN(c3cccc(C(F)(F)F)c3)CC2)C1=O (racemic) (as salt: hydrochloride) , field melting point: 183 to 185 °C

The recorded melting point for entry Cc1ccsc1C1CC(=O)N(CC(=O)N2CCN(c3cccc(C(F)(F)F)c3)CC2)C1=O (racemic) equals 135 to 137 °C

The reported melting point of the compound Cc1ccsc1C1CC(=O)N(CC(=O)N2CCN(c3cccc(Cl)c3Cl)CC2)C1=O (racemic) was 112 to 113.5 °C

melting point measured on Cc1ccsc1C1CC(=O)N(CCCN2CCN(c3cccc(Cl)c3)CC2)C1=O (racemic) (as salt: hydrochloride) = 181.5 to 183.5 °C

Sample Cc1ccsc1C1CC(=O)N(CCCN2CCN(c3ccc(Cl)c(Cl)c3)CC2)C1=O (racemic) (as salt: hydrochloride) ; melting point observed: 101 to 103 °C

Cc1ccsc1C1CC(=O)N(CCCN2CCN(c3ccc(Cl)cc3)CC2)C1=O (racemic) (as salt: hydrochloride) yielded melting point of 68 to 70 °C
